Target: SARS-CoV-2 3CLpro (Severe acute respiratory syndrome coronavirus 2, UniProt P0DTD1)
Assay: biochemical
Assay type: biochemical
Set-up: unit not given here
Settings: sheet LOPAC_screen_w_protease; primary screen of LOPAC1280 at 5 µM with protease; replicate 2
Replicate_2 vs 3: less than gives true; not less than gives false.

Below are worked cases with known answers.
COc1nc(C)nc(Cl)c1NC1=NCCN1.Cl [Moxonidine hydrochloride] : false
CCCCCCC(C(C)O)n1cnc2c(N)ncnc21.Cl (centres unmarked) : true
Cl.N[C@@H](Cc1cnc[nH]1)C(=O)O [L-Histidine hydrochloride] : false
Nc1ccc(CCNc2ncnc3c2ncn3[C@@H]2O[C@H](CO)[C@@H](O)[C@H]2O)cc1 : true
N#C/C(=C\c1ccc(O)c(O)c1)C(=O)N1CCc2ccccc21 : false

query: Is it true that Replicate_2 reported for CC(C)c1ccc2c(c1)c(SC(C)(C)C)c(CC(C)(C)C(=O)O)n2Cc1ccc(Cl)cc1 is less than 3?
result: true

query: I wonder whether CCNC(=O)[C@H]1O[C@@H](n2cnc3c(N)nc(NCCc4ccc(CCC(=O)O)cc4)nc32)[C@H](O)[C@@H]1O.Cl [CGS-21680 hydrochloride] has Replicate_2 below 3. Can you tell?
result: true
